Test system: HIV-1 IIIB strain
Test method notes: MT-4 HIV Wild Type Virus Infection Assay (IIIB Virus)
Format: cell-based
Details: Human immunodeficiency virus 1, IIIB, MT4, 120 h, MT-4 cells acutely infected with HIV-1 IIIB, 5 day incubation, Cell-titer glo
Would you kindly list EC50 for each of these compounds?
# number only, unit nM dropped from output

Problem: Which EC50 is reported for this compound? COC(=O)N[C@H](C(=O)N[C@@H](Cc1ccc(C#Cc2cnc(N3CC4CCC(C3)N4C3COC3)nc2)cc1)[C@H](CN(Cc1c(F)cc(-c2ccn(C(F)F)n2)cc1F)NC(=O)[C@@H](NC(=O)OC)C(C)(C)C(F)(F)F)OC(=O)CC(C)(C)c1c(CC(=O)NCCS(=O)(=O)O)cc(C)cc1OP(=O)(O)O)C(C)(C)C(F)(F)F
Result: 130

Problem: Which EC50 is reported for this compound? COC(=O)N[C@H](C(=O)N[C@@H](Cc1ccc(C#Cc2cnc(N3CC4CCC(C3)N4C3COC3)nc2)cc1)[C@H](CN(Cc1c(F)cc(-c2ccn(C(F)F)n2)cc1F)NC(=O)[C@@H](NC(=O)OC)C(C)(C)C(F)(F)F)OC(=O)CC(C)(C)c1c(CC(=O)Nc2ccc(S(=O)(=O)O)cc2)cc(C)cc1OP(=O)(O)O)C(C)(C)C(F)(F)F
Result: 101

Problem: Which EC50 is reported for this compound? COC(=O)N[C@H](C(=O)N[C@@H](Cc1ccc(C#Cc2cnc(N3CC4CCC(C3)N4C3COC3)nc2)cc1)[C@H](CN(Cc1c(F)cc(-c2ccn(C(F)F)n2)cc1F)NC(=O)[C@@H](NC(=O)OC)C(C)(C)C(F)(F)F)OC(=O)CC(C)(C)c1c(CC(=O)NC(CC(=O)O)CC(=O)O)cc(C)cc1OP(=O)(O)O)C(C)(C)C(F)(F)F
Result: 85.9

Problem: Which EC50 is reported for this compound? COC(=O)N[C@H](C(=O)N[C@@H](Cc1ccc(C#Cc2cnc(N3CC4CCC(C3)N4C3COC3)nc2)cc1)[C@H](CN(Cc1c(F)cc(-c2ccn(C(F)F)n2)cc1F)NC(=O)[C@@H](NC(=O)OC)C(C)(C)C(F)(F)F)OC(=O)CC(C)(C)c1c(CC(=O)N[C@@H](CC(C)C)C(=O)O)cc(C)cc1OP(=O)(O)O)C(C)(C)C(F)(F)F
Result: 373

Problem: Which EC50 is reported for this compound? COC(=O)N[C@H](C(=O)N[C@@H](Cc1ccc(C#Cc2cnc(N3CC4CCC(C3)N4C3COC3)nc2)cc1)[C@H](CN(Cc1c(F)cc(-c2ccn(C(F)F)n2)cc1F)NC(=O)[C@@H](NC(=O)OC)C(C)(C)C(F)(F)F)OC(=O)CC(C)(C)c1c(CC(=O)NC(CCP(=O)(O)O)C(=O)O)cc(C)cc1OP(=O)(O)O)C(C)(C)C(F)(F)F (stereo partly drawn)
Result: 65.7

Problem: Which EC50 is reported for this compound? COC(=O)N[C@H](C(=O)N[C@@H](Cc1ccc(C#Cc2cnc(N3CC4CCC(C3)N4C3COC3)nc2)cc1)[C@H](CN(Cc1c(F)cc(-c2ccn(C(F)F)n2)cc1F)NC(=O)[C@@H](NC(=O)OC)C(C)(C)C(F)(F)F)OC(=O)CC(C)(C)c1c(CC(=O)NC2(C(=O)O)CCOCC2)cc(C)cc1OP(=O)(O)O)C(C)(C)C(F)(F)F
Result: 276

----------
Would you kindly list half-life at 2 μM for each of these molecules?
Test method notes: PBS Stability Assay
Format: physicochemical
Details: buffer, pH 7.4, 2 μM, phosphate buffered saline pH 7.4; read-out: PBS T½
# number only, unit h dropped from output

Problem: Which half-life at 2 μM is reported for this molecule? COC(=O)N[C@H](C(=O)N[C@@H](Cc1ccc(C#Cc2cnc(N3CC4CCC(C3)N4C3COC3)nc2)cc1)[C@H](CN(Cc1c(F)cc(-c2ccn(C(F)F)n2)cc1F)NC(=O)[C@@H](NC(=O)OC)C(C)(C)C(F)(F)F)OC(=O)CC(C)(C)c1c(CC(=O)N2CC[C@H](C(=O)O)C2)cc(C)cc1OP(=O)(O)O)C(C)(C)C(F)(F)F
Result: 4.89

Problem: Which half-life at 2 μM is reported for this molecule? COC(=O)N[C@H](C(=O)N[C@@H](Cc1ccc(C#Cc2cnc(N3CC4CCC(C3)N4C3COC3)nc2)cc1)[C@H](CN(Cc1c(F)cc(-c2ccn(C(F)F)n2)cc1F)NC(=O)[C@@H](NC(=O)OC)C(C)(C)C(F)(F)F)OC(=O)CC(C)(C)c1c(CC(=O)Nc2ccccn2)cc(C)cc1OP(=O)(O)O)C(C)(C)C(F)(F)F
Result: 1.98

Problem: Which half-life at 2 μM is reported for this molecule? COC(=O)N[C@H](C(=O)N[C@@H](Cc1ccc(C#Cc2cnc(N3CC4CCC(C3)N4C3COC3)nc2)cc1)[C@H](CN(Cc1c(F)cc(-c2ccn(C(F)F)n2)cc1F)NC(=O)[C@@H](NC(=O)OC)C(C)(C)C(F)(F)F)OC(=O)CC(C)(C)c1c(CC(=O)NCC(=O)NS(C)(=O)=O)cc(C)cc1OP(=O)(O)O)C(C)(C)C(F)(F)F
Result: 6.41

----------
Would you kindly list log10 of EC50 for each of these compounds?
Test system: HIV-1 IIIB strain
Test method notes: MT-4 HIV Wild Type Virus Infection Assay (IIIB Virus)
Type: cell-based
Details: Human immunodeficiency virus 1, IIIB, MT4, 120 h, MT-4 cells acutely infected with HIV-1 IIIB, 5 day incubation, Cell-titer glo
On a log10 scale: recorded EC50, unit nM.

Problem: Which log10 of EC50 is reported for this compound? COC(=O)N[C@H](C(=O)N[C@@H](Cc1ccc(C#Cc2cnc(N3CC4CCC(C3)N4C3COC3)nc2)cc1)[C@H](CN(Cc1c(F)cc(-c2ccn(C(F)F)n2)cc1F)NC(=O)[C@@H](NC(=O)OC)C(C)(C)C(F)(F)F)OC(=O)CC(C)(C)c1c(CC(=O)N2CCC[C@H]2C(=O)O)cc(C)cc1OP(=O)(O)O)C(C)(C)C(F)(F)F
Result: 2.81

Problem: Which log10 of EC50 is reported for this compound? COC(=O)N[C@H](C(=O)N[C@@H](Cc1ccc(C#Cc2cnc(N3CC4CCC(C3)N4C3COC3)nc2)cc1)[C@H](CN(Cc1c(F)cc(-c2ccn(C(F)F)n2)cc1F)NC(=O)[C@@H](NC(=O)OC)C(C)(C)C(F)(F)F)OC(=O)CC(C)(C)c1c(CC(=O)NCc2ccc(C(F)F)cc2)cc(C)cc1OP(=O)(O)O)C(C)(C)C(F)(F)F
Result: 3.24

Problem: Which log10 of EC50 is reported for this compound? COC(=O)N[C@H](C(=O)N[C@@H](Cc1ccc(C#Cc2cnc(N3CC4CCC(C3)N4C3COC3)nc2)cc1)[C@H](CN(Cc1c(F)cc(-c2ccn(C(F)F)n2)cc1F)NC(=O)[C@@H](NC(=O)OC)C(C)(C)C(F)(F)F)OC(=O)CC(C)(C)c1c(CC(=O)N2CCN(S(C)(=O)=O)CC2)cc(C)cc1OP(=O)(O)O)C(C)(C)C(F)(F)F
Result: 2.87

Problem: Which log10 of EC50 is reported for this compound? COC(=O)N[C@H](C(=O)N[C@@H](Cc1ccc(C#Cc2cnc(N3CC4CCC(C3)N4C3COC3)nc2)cc1)[C@H](CN(Cc1c(F)cc(-c2ccn(C(F)F)n2)cc1F)NC(=O)[C@@H](NC(=O)OC)C(C)(C)C(F)(F)F)OC(=O)CC(C)(C)c1c(CC(=O)NCCCC(=O)O)cc(C)cc1OP(=O)(O)O)C(C)(C)C(F)(F)F
Result: 1.78

Problem: Which log10 of EC50 is reported for this compound? COC(=O)N[C@H](C(=O)N[C@@H](Cc1ccc(C#Cc2cnc(N3CC4CCC(C3)N4C3COC3)nc2)cc1)[C@H](CN(Cc1c(F)cc(-c2ccn(C(F)F)n2)cc1F)NC(=O)[C@@H](NC(=O)OC)C(C)(C)C(F)(F)F)OC(=O)CC(C)(C)c1c(CC(=O)NC(CCCC(=O)O)CC(=O)O)cc(C)cc1OP(=O)(O)O)C(C)(C)C(F)(F)F (stereo partly drawn)
Result: 1.62

Problem: Which log10 of EC50 is reported for this compound? COC(=O)N[C@H](C(=O)N[C@@H](Cc1ccc(C#Cc2cnc(N3CC4CCC(C3)N4C3COC3)nc2)cc1)[C@H](CN(Cc1c(F)cc(-c2ccn(C(F)F)n2)cc1F)NC(=O)[C@@H](NC(=O)OC)C(C)(C)C(F)(F)F)OC(=O)OCOC(=O)CC(C)(C)c1c(CC(=O)N[C@@H](CC(N)=O)C(=O)O)cc(C)cc1OP(=O)(O)O)C(C)(C)C(F)(F)F
Result: 0.73

----------
Test method notes: Intestinal S9 Assay (dog GI S9)
Format: in vitro ADME
Details: dog, 1.0 mg/mL S9 protein, TRIS pH 7.4, read-out: Dog GI S9 T½
Would you kindly list half-life at 2 μM for each of these molecules?
# number only, unit h dropped from output

Problem: Which half-life at 2 μM is reported for this molecule? COC(=O)N[C@H](C(=O)N[C@@H](Cc1ccc(C#Cc2cnc(N3CC4CCC(C3)N4C3COC3)nc2)cc1)[C@H](CN(Cc1c(F)cc(-c2ccn(C(F)F)n2)cc1F)NC(=O)[C@@H](NC(=O)OC)C(C)(C)C(F)(F)F)OC(=O)CC(C)(C)c1c(CC(=O)Nc2cccc(S(=O)(=O)O)c2)cc(C)cc1OP(=O)(O)O)C(C)(C)C(F)(F)F [Example 105]
Result: 4.85

Problem: Which half-life at 2 μM is reported for this molecule? COC(=O)N[C@H](C(=O)N[C@@H](Cc1ccc(C#Cc2cnc(N3CC4CCC(C3)N4C3COC3)nc2)cc1)[C@H](CN(Cc1c(F)cc(-c2ccn(C(F)F)n2)cc1F)NC(=O)[C@@H](NC(=O)OC)C(C)(C)C(F)(F)F)OC(=O)CC(C)(C)c1c(CC(=O)N2[C@@H](C)CC[C@H]2C(=O)O)cc(C)cc1OP(=O)(O)O)C(C)(C)C(F)(F)F [Example 54]
Result: 9.44

Problem: Which half-life at 2 μM is reported for this molecule? COC(=O)N[C@H](C(=O)N[C@@H](Cc1ccc(C#Cc2cnc(N3CC4CCC(C3)N4C3COC3)nc2)cc1)[C@H](CN(Cc1c(F)cc(-c2ccn(C(F)F)n2)cc1F)NC(=O)[C@@H](NC(=O)OC)C(C)(C)C(F)(F)F)OC(=O)CC(C)(C)c1c(CC(=O)NCP(=O)(O)O)cc(C)cc1OP(=O)(O)O)C(C)(C)C(F)(F)F [Example 104]
Result: 0.15
